Target: alpha2C adrenergic receptors (Homo sapiens, UniProt P18825)
Construct: expressed in transfected cells; host or cells: NIH-3T3 cells
Sequence (P18825 1-462): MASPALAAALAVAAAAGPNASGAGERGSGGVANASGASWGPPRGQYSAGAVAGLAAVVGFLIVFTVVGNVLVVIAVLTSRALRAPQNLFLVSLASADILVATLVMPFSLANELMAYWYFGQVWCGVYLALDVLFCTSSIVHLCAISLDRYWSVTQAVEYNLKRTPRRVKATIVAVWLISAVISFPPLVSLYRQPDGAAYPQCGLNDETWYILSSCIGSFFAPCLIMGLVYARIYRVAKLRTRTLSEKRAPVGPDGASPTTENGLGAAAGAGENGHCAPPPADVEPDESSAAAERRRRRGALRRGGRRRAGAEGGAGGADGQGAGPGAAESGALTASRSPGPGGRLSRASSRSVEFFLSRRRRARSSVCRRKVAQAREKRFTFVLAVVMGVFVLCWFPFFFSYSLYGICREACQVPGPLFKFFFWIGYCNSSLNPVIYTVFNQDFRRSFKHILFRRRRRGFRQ
Assay: RSAT assay (Receptor Selection and Amplification Technology), alpha2C
Format: cell-based
Settings: NIH-3T3 cells, ratio of maximal effect to that of standard full agonist brimonidine, NA = not active below 10 micromolar
property: Intrinsic Activity Alpha 2C
Give the value as a plain number.

// below: answered compounds
compound	Intrinsic Activity Alpha 2C
CC(c1c[nH]c(=S)[nH]1)c1cccc2cccnc12 (centres unmarked)	0.62
S=c1[nH]cc(Cc2cccc3ccccc23)[nH]1	0.55
CC(c1c[nH]c(=S)[nH]1)c1cccc2c1OCO2 (centres unmarked)	0.77
S=c1[nH]cc(Cc2cccc3cccnc23)[nH]1	0.75
S=c1[nH]cc(Cc2cccc3nsnc23)[nH]1	0.69
S=c1[nH]cc(Cc2cccc3c2OCCO3)[nH]1	0.56
Cc1c(C(C)c2c[nH]c(=S)[nH]2)ccc2cccnc12 (centres unmarked)	0.41

Now for another entry.
Value of measured Intrinsic Activity Alpha 2C for the entry CC(c1c[nH]c(=S)[nH]1)c1cccc2c1OCCO2 (centres unmarked) : 0.48

---

Measured Intrinsic Activity Alpha 2B, listed per entry for reference.
target: alpha2B adrenergic receptors (Homo sapiens, UniProt P18089); construct: expressed in transfected cells; host or cells: NIH-3T3 cells; assay: RSAT assay (Receptor Selection and Amplification Technology), alpha2B; type: cell-based; conditions: NIH-3T3 cells, ratio of maximal effect to that of standard full agonist brimonidine, NA = not active below 10 micromolar
Sequence (P18089 whole entry): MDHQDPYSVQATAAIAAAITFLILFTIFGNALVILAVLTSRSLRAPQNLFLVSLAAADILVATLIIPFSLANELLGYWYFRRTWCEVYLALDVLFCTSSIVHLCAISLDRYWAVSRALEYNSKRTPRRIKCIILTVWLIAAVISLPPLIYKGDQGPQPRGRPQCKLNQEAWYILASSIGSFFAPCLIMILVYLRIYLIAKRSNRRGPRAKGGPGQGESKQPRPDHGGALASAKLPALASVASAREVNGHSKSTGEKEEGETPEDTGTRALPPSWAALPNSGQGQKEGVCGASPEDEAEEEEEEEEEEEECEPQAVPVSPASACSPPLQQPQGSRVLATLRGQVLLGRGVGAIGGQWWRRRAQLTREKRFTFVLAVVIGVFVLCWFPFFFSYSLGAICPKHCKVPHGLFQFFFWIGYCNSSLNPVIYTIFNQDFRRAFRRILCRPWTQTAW
Give the value as a plain number.

compound	readout value
S=c1[nH]cc(Cc2ccc3c(c2)OCO3)[nH]1	1.05
S=c1[nH]cc(Cc2cccc3cccnc23)[nH]1	1.01
CC(c1ccc2c(c1)OCCO2)c1c[nH]c(=S)[nH]1 (centres unmarked)	1.15
S=c1[nH]cc(Cc2cccc3ccccc23)[nH]1	0.73

Now for another entry.
Value of measured Intrinsic Activity Alpha 2B for the entry S=c1[nH]cc(Cc2cccc3ncccc23)[nH]1 : 0.74

---

target: alpha2B adrenergic receptors (Homo sapiens); construct: expressed in transfected cells; host or cells: NIH-3T3 cells; experiment: RSAT assay (Receptor Selection and Amplification Technology), alpha2B; format: cell-based; settings: NIH-3T3 cells, ratio of maximal effect to that of standard full agonist brimonidine, NA = not active below 10 micromolar
Measured Intrinsic Activity Alpha 2B, listed per entry for reference.
Give the value as a plain number.

Value of measured Intrinsic Activity Alpha 2B for the entry CC(c1c[nH]c(=S)[nH]1)c1cccc2c1OCCO2 (stereo not drawn) : 1.38

Value of measured Intrinsic Activity Alpha 2B for the entry S=c1[nH]cc(Cc2cccc3c2OCCO3)[nH]1 : 0.94

Value of measured Intrinsic Activity Alpha 2B for the entry CC(c1c[nH]c(=S)[nH]1)c1cccc2ncccc12 (racemic) [Compound 7] : 0.90

Value of measured Intrinsic Activity Alpha 2B for the entry CC(c1c[nH]c(=S)[nH]1)c1cccc2c1OCO2 (stereo not drawn) : 0.97

Value of measured Intrinsic Activity Alpha 2B for the entry Cc1c(C(C)c2c[nH]c(=S)[nH]2)ccc2cccnc12 (stereo not drawn) : 1.05

Value of measured Intrinsic Activity Alpha 2B for the entry S=c1[nH]cc(Cc2cccc3nsnc23)[nH]1 : 1.22

Hello, the source for this data is patent US7396849B2, in case you need it.
